Where these numbers come from: patent US20110059095A1

# TARGET_ENTITY: T1, Peptide G (rat PAR-2), N-terminal biotinylated (Rat (Rattus norvegicus), N-terminal biotin via G4S linker)
# T1 construct: also called Peptide G N-Term
# T1 peptide: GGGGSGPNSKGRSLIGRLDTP
# MEASUREMENT_NOTES: SPR, peptide immobilized
VALUE_KIND: Kd (nM)
Answer format: numeric, nM implied, no suffix.

Q: Specify measured Kd for H4H581P (antibody, human IgG4, V domains shown, also called mAb H4H581P; H1H581P variable regions) VH: QVQLVESGGGVVQPGRSLRLSCVASGFTFSRYGIHWVRQAPGKGLEWVIVISYDGINKYYADSVKGRFTISRDNSKNTVYLQMNSLRAEDTAVYYCAKGDFWSGYFDYWGQGTLVTVSS VL: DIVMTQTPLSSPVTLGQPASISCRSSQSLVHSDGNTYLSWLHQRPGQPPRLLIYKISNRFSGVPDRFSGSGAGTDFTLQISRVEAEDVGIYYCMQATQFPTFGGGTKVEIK .
Result: 0.354
